# methodSummary: in vivo
# testSettings: mouse, in vivo, iv, 400 nmol/kg
parameter: clearance
A complete answer gives the number followed by the unit.

Asked: Endpoint output: clearance of CCCCCC(=O)N[C@H]1CSCc2cc(CSCCNC(=O)CN3CCN(CC(=O)O)CCN(CC(=O)O)CCN(CC(=O)O)CC3)cc(c2)CSC[C@@H](C(=O)O)NC(=O)[C@H](Cc2ccccc2)NC(=O)[C@H](CCC(N)=O)NC(=O)[C@H]([C@@H](C)O)NC(=O)[C@@H]2CCCN2C(=O)[C@@H]2CCCN2C1=O [Compound 3BP-3554] . Value?
Given back: 8.03 mL/min/kg

----------
# methodSummary: in vitro
# testSettings: human, plasma
parameter: remaining at 24 h, 9.8 µM (%)
Entry rule: numbers only, all in %.

Asked: Endpoint output: remaining at 24 h, 9.8 µM of "CCCCCC(=O)N[C@H]1CSCc2cc(CSCCNC(=O)CN3CCN4CCN5CCN(CC3)CC(=O)[O][Lu]([O]C(=O)C4)[O]C(=O)C5)cc(c2)CSC[C@@H](C(=O)O)NC(=O)[C@H](Cc2ccccc2)NC(=O)[C@H](CCC(N)=O)NC(=O)[C@H]([C@@H](C)O)NC(=O)[C@@H]2CCCN2C(=O)[C@@H]2CCCN2C1=O" . Value?
Given back: 100

Values compiled from patent US12427210B2.
